Origin of the recorded values: patent US20240270762A1

test system: N. gonorrhoeae WHO L; experiment: Liquid broth MIC in Fastidious broth; details: Neisseria gonorrhoeae, read-out: Minimum Inhibitory Concentration (MIC), N. gonorrhoeae WHO L
Hi there, I'd appreciate the recorded MIC for every entry that follows.

Consider the reported MIC for these compounds:
[[record]]
compound = "O=C(NC(C(=O)N[C@H]1Cc2cccc(C(=O)O)c2OB1O)c1ccc(P(=O)(O)O)cc1)c1ccccn1 (stereo partly drawn) [Example 32]"
result = "16 to 32 µg/mL"

[[record]]
compound = "O=C(NCCN1CCN(C(=O)NC(C(=O)N[C@H]2Cc3ccc(F)c(C(=O)O)c3OB2O)c2cc(F)c(O)c(O)c2Cl)C1=O)c1ccccc1 (stereo partly drawn) [Example 242]"
result = "> 64 µg/mL"

[[record]]
compound = "Cn1cccc(C(=O)N[C@@H](C(=O)N[C@H]2Cc3cccc(C(=O)O)c3OB2O)c2ccc(P(=O)(O)O)cc2)c1=O (single isomer, unassigned) [Example 182]"
result = "16 to 32 µg/mL"

[[record]]
compound = "O=C(NCCN1CCN(C(=O)NC(C(=O)N[C@H]2Cc3ccc(F)c(C(=O)O)c3OB2O)c2cc(F)c(O)c(O)c2Cl)C(=O)C1=O)Nc1ccc(O)cc1 (stereo partly drawn) [Example 219]"
result = "> 64 µg/mL"

[[record]]
compound = "CC(C)(C)C(=O)NC(C(=O)N[C@H]1Cc2cccc(C(=O)O)c2OB1O)c1ccc(P(=O)(O)O)cc1 (stereo partly drawn) [Example 29]"
result = "16 to 32 µg/mL"


Could you now consider this next compound?
According to the records, this compound O=C(NCCN1CCN(C(=O)N[C@@H](C(=O)N[C@H]2Cc3ccc(F)c(C(=O)O)c3OB2O)c2cc(F)c(O)c(O)c2Cl)C(=O)C1=O)Nc1cccnc1 [Example 222] displays MIC of > 64 µg/mL

---

test system: B. thailandensis ATCC 700388; assay: microbe, parasite or virus in culture; assay type: cell-based; conditions: Burkholderia thailandensis, ATCC700388, read-out: Minimum inhibitory concentration (MIC), B. thailandensis ATCC 700388
readout_label: MIC

Consider the reported MIC for these compounds:
[[record]]
compound = "O=C(NCCN1CCN(C(=O)NC(C(=O)N[C@H]2Cc3ccc(F)c(C(=O)O)c3OB2O)c2cc(F)c(O)c(O)c2Cl)C1=O)c1ccncc1 (stereo partly drawn) [Example 245]"
system_tested = "B. thailandensis ATCC 700388"
result = "2 to 4 µg/mL"

[[record]]
compound = "O=C(NCCCN1CCN(C(=O)NC(C(=O)N[C@H]2Cc3ccc(F)c(C(=O)O)c3OB2O)c2cc(F)c(O)c(O)c2Cl)C(=O)C1=O)c1ccccc1 (stereo partly drawn) [Example 202]"
system_tested = "B. thailandensis ATCC 700388"
result = "8 to 16 µg/mL"


Could you now consider this next compound?
Recorded MIC for O=C(NCCCN1CCN(C(=O)NC(C(=O)N[C@H]2Cc3ccc(F)c(C(=O)O)c3OB2O)c2cc(F)c(O)c(O)c2Cl)C(=O)C1=O)c1c(F)cncc1Cl (stereo partly drawn) [Example 403] on B. thailandensis ATCC 700388 was 2 to 4 µg/mL

---

Molecular target: A. baumannii PBP1a (Acinetobacter baumannii)
Sequence (A0ABX6CK30 1-851): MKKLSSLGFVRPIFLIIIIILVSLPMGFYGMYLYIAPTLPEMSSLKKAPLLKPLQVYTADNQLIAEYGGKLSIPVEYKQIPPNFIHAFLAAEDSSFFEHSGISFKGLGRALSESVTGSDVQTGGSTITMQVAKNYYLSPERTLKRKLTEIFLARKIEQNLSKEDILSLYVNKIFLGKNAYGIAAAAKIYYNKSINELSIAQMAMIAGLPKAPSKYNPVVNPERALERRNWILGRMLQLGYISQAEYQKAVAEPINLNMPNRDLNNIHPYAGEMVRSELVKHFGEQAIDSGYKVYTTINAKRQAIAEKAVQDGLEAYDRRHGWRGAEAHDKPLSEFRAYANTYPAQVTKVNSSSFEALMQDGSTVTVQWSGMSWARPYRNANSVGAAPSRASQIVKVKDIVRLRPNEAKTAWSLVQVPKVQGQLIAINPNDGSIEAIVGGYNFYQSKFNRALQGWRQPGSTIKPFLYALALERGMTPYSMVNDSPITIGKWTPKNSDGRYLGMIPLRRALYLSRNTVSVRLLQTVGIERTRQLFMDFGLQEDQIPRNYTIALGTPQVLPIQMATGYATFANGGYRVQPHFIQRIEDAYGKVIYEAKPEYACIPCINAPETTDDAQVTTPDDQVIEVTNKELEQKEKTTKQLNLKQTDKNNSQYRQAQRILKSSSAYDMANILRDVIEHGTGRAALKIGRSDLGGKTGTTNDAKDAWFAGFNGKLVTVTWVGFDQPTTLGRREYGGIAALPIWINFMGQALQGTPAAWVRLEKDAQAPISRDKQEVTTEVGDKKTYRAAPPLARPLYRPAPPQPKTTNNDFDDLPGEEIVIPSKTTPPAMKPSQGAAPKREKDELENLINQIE
Assay: Bocillin-FL competition binding via gel filtration, A. baumannii PBP1a
Conditions: competition binding assay using Bocillin-FL via gel filtration; read-out: A. baumannii PBP1a Potency
Procedure: Affinity to A. baumannii PBP1a and PBP2 was assessed a competitive equilibrium binding assay using Bocillin-FL as the reporter molecule. Enzyme was pre-incubated with increasing concentrations of inhibitors, prior to addition of Bocillin and further incubation for 15 minutes. PBP bound with Bocillin-FL was separated by gel filtration using 96-well Zeba Spin size exclusion plates, and the fluorescence measured. […]
readout_label: EC50

[[record]]
molecule = "O=C(NCCCS(=O)(=O)N1CCN(C(=O)N[C@@H](C(=O)N[C@H]2Cc3ccc(F)c(C(=O)O)c3OB2O)c2cc(F)c(O)c(O)c2Cl)C1=O)c1cccc(O)c1"
system_tested = "A. baumannii PBP1a (Acinetobacter baumannii)"
readout_label = "EC50"
result = "< 10 µM"

[[record]]
molecule = "O=C(NCCCN1CCN(C(=O)NC(C(=O)N[C@H]2Cc3ccc(F)c(C(=O)O)c3OB2O)c2cc(F)c(O)c(O)c2Cl)C(=O)C1=O)c1ccc(F)c(O)c1 (stereo partly drawn)"
system_tested = "A. baumannii PBP1a (Acinetobacter baumannii)"
readout_label = "EC50"
result = "< 10 µM"


According to the records, this molecule O=C(NCCN1CCN(C(=O)NC(C(=O)N[C@H]2Cc3ccc(F)c(C(=O)O)c3OB2O)c2cc(F)c(O)c(O)c2Cl)C(=O)C1=O)Nc1cccc(O)c1 (stereo partly drawn) displays EC50 of < 10 µM

---

system: P. aeruginosa CDC-0054; assay: microbe, parasite or virus in culture; format: cell-based; settings: Pseudomonas aeruginosa, CDC0054, read-out: Minimum inhibitory concentration, P. aeruginosa CDC-0054
Hi there, I'd appreciate the recorded MIC for every entry that follows.

Consider the reported MIC for these compounds:
[[record]]
compound = "CN(CCN1CCN(C(=O)N[C@@H](C(=O)N[C@H]2Cc3ccc(F)c(C(=O)O)c3OB2O)c2cc(F)c(O)c(O)c2Cl)C(=O)C1=O)Cc1cccnc1 [Example 201]"
readout_label = "MIC"
result = "< 1 µg/mL"

[[record]]
compound = "O=C(NCCS(=O)(=O)N1CCN(C(=O)N[C@@H](C(=O)N[C@H]2Cc3ccc(F)c(C(=O)O)c3OB2O)c2cc(F)c(O)c(O)c2Cl)C1=O)Nc1cccnc1 [Example 267]"
readout_label = "MIC"
result = "2 to 4 µg/mL"

[[record]]
compound = "O=C(O)c1c(F)ccc2c1OB(O)[C@@H](NC(=O)[C@H](NC(=O)N1CCN(C3CCN(C(=O)c4ccc(F)c(O)c4F)CC3)C1=O)c1cc(F)c(O)c(O)c1Cl)C2 (single isomer, unassigned) [Example 437]"
readout_label = "MIC"
result = "< 1 µg/mL"

[[record]]
compound = "O=C(O)c1c(F)ccc2c1OB(O)[C@@H](NC(=O)[C@H](NC(=O)N1CCN(C3CCN(C(=O)c4cc(O)c(O)c(Cl)c4)CC3)C1=O)c1ccc(P(=O)(O)O)cc1)C2 [Example 496]"
readout_label = "MIC"
result = "< 1 µg/mL"

[[record]]
compound = "O=C(O)c1c(F)ccc2c1OB(O)[C@@H](NC(=O)[C@H](NC(=O)N1CCN(C3CCN(C(=O)Nc4cc(O)cc(O)c4)CC3)C1=O)c1cc(F)c(O)c(O)c1Cl)C2 [Example 456]"
readout_label = "MIC"
result = "< 1 µg/mL"


Go through the items and report each one's MIC.
1. O=C(NCCCS(=O)(=O)N1CCN(C(=O)NC(C(=O)N[C@H]2Cc3ccc(F)c(C(=O)O)c3OB2O)c2cc(F)c(O)c(O)c2Cl)C1=O)Nc1ccc(O)cc1 (some centres unmarked) [Example 276]
2. O=C(NCCCN1CCN(C(=O)NC(C(=O)N[C@H]2Cc3ccc(F)c(C(=O)O)c3OB2O)c2cc(F)c(O)c(O)c2Cl)C(=O)C1=O)c1ccc(F)c(O)c1Cl (some centres unmarked) [Example 412]
3. Nc1ccc(CN2CCC(N3CCN(C(=O)N[C@@H](C(=O)N[C@H]4Cc5ccc(F)c(C(=O)O)c5OB4O)c4cc(F)c(O)c(O)c4Cl)C3=O)CC2)cn1 (single isomer, unassigned) [Example 618]
4. O=C(NCCCN1CCN(C(=O)NC(C(=O)N[C@H]2Cc3ccc(F)c(C(=O)O)c3OB2O)c2cc(F)c(O)c(O)c2Cl)C(=O)C1=O)c1ccc(F)c(O)c1 (some centres unmarked) [Example 409]
5. O=C(NCCCN1CCN(C(=O)NC(C(=O)N[C@H]2Cc3ccc(F)c(C(=O)O)c3OB2O)c2cc(F)c(O)c(O)c2Cl)C(=O)C1=O)c1ccncc1 (some centres unmarked) [Example 205]
6. O=C(NCCN1CCN(C(=O)NC(C(=O)N[C@H]2Cc3ccc(F)c(C(=O)O)c3OB2O)c2cc(F)c(O)c(O)c2Cl)C1=O)c1cccc(O)c1 (some centres unmarked) [Example 244]

1: 8 to 16 µg/mL; 2: < 1 µg/mL; 3: < 1 µg/mL; 4: < 1 µg/mL; 5: < 1 µg/mL; 6: 2 to 4 µg/mL

---

tested on: P. aeruginosa CDC-0054; assay: microbe, parasite or virus in culture; type: cell-based; conditions: Pseudomonas aeruginosa, CDC0054, read-out: Minimum inhibitory concentration, P. aeruginosa CDC-0054
readout_label: MIC

[[record]]
compound = "O=C(NCCN1CCN(C(=O)NC(C(=O)N[C@H]2Cc3ccc(F)c(C(=O)O)c3OB2O)c2cc(F)c(O)c(O)c2Cl)C(=O)C1=O)c1ccncc1 (stereo partly shown) [Example 216]"
result = "8 to 16 µg/mL"

[[record]]
compound = "O=C(NCCCN1CCN(C(=O)N[C@H](C(=O)N[C@H]2Cc3ccc(F)c(C(=O)O)c3OB2O)c2cc(F)c(O)c(O)c2Cl)C1=O)c1cccc(O)c1 [Example 254]"
result = "> 128 µg/mL"

[[record]]
compound = "O=C(O)c1c(F)ccc2c1OB(O)[C@@H](NC(=O)[C@H](NC(=O)N1CCN(C3CCN(C(=O)c4c(F)ccc(O)c4Cl)CC3)C1=O)c1cc(F)c(O)c(O)c1Cl)C2 (single isomer, unassigned) [Example 440]"
result = "< 1 µg/mL"


Could you now consider this next compound?
Recorded MIC for O=C(O)c1c(F)ccc2c1OB(O)[C@@H](NC(=O)C(NC(=O)N1CCN(C3CCN(C(=O)c4cc(O)cc(O)c4)CC3)C(=O)C1=O)c1cc(F)c(O)c(O)c1Cl)C2 (stereo partly shown) [Example 309] on P. aeruginosa CDC-0054 was < 1 µg/mL
